Where do these numbers come from? They come from ChEMBL document CHEMBL2429832.

Reported Ki values, UniProtKB P08173.
Sequence (P08173 whole entry): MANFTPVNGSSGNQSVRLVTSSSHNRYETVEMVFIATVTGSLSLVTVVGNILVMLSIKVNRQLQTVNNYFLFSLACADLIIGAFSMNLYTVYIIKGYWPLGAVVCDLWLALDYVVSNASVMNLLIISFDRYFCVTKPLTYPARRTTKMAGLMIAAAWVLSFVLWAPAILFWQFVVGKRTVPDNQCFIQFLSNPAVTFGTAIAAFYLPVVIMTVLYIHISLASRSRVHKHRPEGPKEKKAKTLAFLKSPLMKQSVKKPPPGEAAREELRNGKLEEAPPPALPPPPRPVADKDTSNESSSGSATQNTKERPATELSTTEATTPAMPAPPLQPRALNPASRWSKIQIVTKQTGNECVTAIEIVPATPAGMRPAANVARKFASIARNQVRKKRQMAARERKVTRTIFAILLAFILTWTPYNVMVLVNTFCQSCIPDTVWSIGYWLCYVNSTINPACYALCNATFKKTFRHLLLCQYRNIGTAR
MEASURED_PROPERTY: Ki (nM)

| COMPOUND | MEASURED |
| --- | --- |
| CN(Cc1ccccc1)[C@H]1C2C3CC4C2C(=O)C2C4C3C21 (stereo partly drawn) | 1260 |
| c1ccc(CCN[C@H]2C3C4CC5C6C4CC3C6C52)cc1 (stereo partly drawn) | 892 |
| COc1cc(CN(C)[C@H]2C3C4CC5C6C4CC3C6C52)cc(OC)c1OC (stereo partly drawn) | 5910 |

* * *

// reported inhibition for each item listed
Target: UniProt P28223
Sequence (P28223 whole entry): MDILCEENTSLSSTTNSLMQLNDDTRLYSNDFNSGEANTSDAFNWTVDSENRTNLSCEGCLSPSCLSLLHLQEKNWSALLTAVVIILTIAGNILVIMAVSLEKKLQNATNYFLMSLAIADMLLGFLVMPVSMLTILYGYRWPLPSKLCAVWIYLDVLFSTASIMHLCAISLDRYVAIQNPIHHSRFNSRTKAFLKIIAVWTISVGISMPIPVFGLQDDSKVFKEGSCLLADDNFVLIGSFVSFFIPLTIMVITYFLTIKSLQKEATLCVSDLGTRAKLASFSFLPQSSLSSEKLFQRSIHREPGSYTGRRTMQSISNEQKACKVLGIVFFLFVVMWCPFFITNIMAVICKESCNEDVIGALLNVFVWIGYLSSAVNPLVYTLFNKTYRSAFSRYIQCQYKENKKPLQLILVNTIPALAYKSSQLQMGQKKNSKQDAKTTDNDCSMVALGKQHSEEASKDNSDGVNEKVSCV
Experiment: Inhibition of 5-HT2A receptor (unknown origin) at 10 uM by PDSP assay relative to control

| COMPOUND | inhibition |
| --- | --- |
| CN(CCCc1cccc(F)c1)[C@H]1C2C3CC4C2C(=O)C2C4C3C21 (stereo partly drawn) | < 50% |
| C1C2C3CC4C2C2C1C3[C@H](NCC13C5C6C7C5C1C7C63)C42 (stereo partly drawn) | < 50% |
| c1ccc(CN[C@H]2C3C4CC5C6C4CC3C6C52)cc1 (stereo partly drawn) | < 50% |
